- PROTOCOL DESCRIPTION: Test B: Cytotoxicity Assay
- Format: cell-based
- CONDITION CONTEXT: human, uninfected MT-4 cells, same protocol as Test A
Category | rule: reported CC50 at 5 days within range, see lower range (below 8 µM), middle range (8 µM to below 20 µM), upper range (20 µM or more)

As a guide, the following entries are already answered.
### Prompt Into which bin does this compound go? CN(C)c1nn(CC(=O)N[C@@H](Cc2cc(F)cc(F)c2)c2nc(C#CC(C)(C)O)ccc2-c2ccc(Cl)c3c(NS(C)(=O)=O)nn(C)c23)c2c1[C@H]1C[C@H]1C2(F)F
### Response upper range

### Prompt Entry to check: Cn1nc(NC(=O)CNC2CC2)c2c(Cl)ccc(-c3ccc(C#CC(C)(C)O)nc3[C@H](Cc3cc(F)cc(F)c3)NC(=O)Cn3nc(C(F)F)c4c3C(F)(F)[C@@H]3C[C@H]43)c21
### Response lower range

### Prompt Entry to check: CC(C)(O)C#Cc1ccc(-c2cnc3[nH]ccc3c2F)c([C@H](Cc2cc(F)cc(F)c2)NC(=O)Cn2nc(C(F)(F)F)c3c2C(F)(F)[C@@H]2C[C@H]32)n1 [Compound 36C]
### Response lower range

### Prompt Entry to check: Cn1nc(NS(C)(=O)=O)c2cccc(-c3ccc(C#CC(C)(C)O)nc3[C@H](Cc3cc(F)cc(F)c3)NC(=O)Cn3nc(C(F)F)c4c3C3CC3CC4)c21 (stereo partly shown)
### Response middle range

### Prompt Entry to check: CC(C)(O)C#Cc1ccc(-c2cccn3c(NCC(F)(F)F)nnc23)c([C@H](Cc2cc(F)cc(F)c2)NC(=O)Cn2nc(C(F)F)c3c2C(F)(F)[C@@H]2C[C@H]32)n1 [Compound 117F]
### Response upper range

### Prompt Entry to check: Cn1nc(NS(=O)(=O)c2cn[nH]c2)c2cccc(-c3ccc(C#CC(C)(C)O)nc3[C@H](Cc3cc(F)cc(F)c3)NC(=O)Cn3nc(C(F)(F)F)c4c3C(F)(F)[C@@H]3C[C@H]43)c21
### Response upper range

### Prompt Entry to check: CN(C)c1cc(-c2ccc(Cl)c3c(NS(C)(=O)=O)nn(C)c23)c([C@H](Cc2cc(F)cc(F)c2)NC(=O)Cn2nc(C(F)F)c3c2C(F)(F)[C@@H]2C[C@H]32)nc1C#CC(C)(C)O [Compound 183F]
### Response middle range

### Prompt Entry to check: Cn1nc(NS(C)(=O)=O)c2c(Cl)ccc(-c3ccc(C#CC(C)(O)CNC(=O)OC(C)(C)C)nc3[C@H](Cc3cc(F)cc(F)c3)NC(=O)Cn3nc(C(F)(F)F)c4c3C(F)(F)[C@@H]3C[C@H]43)c21 (stereo partly shown)
### Response lower range

Further cases:
### Prompt Into which bin does this compound go? CCC(=O)Nc1nn(C)c2c(-c3ccc(C#CC(C)(C)O)nc3[C@H](Cc3cc(F)cc(F)c3)NC(=O)Cn3nc(C(F)F)c4c3C(F)(F)[C@@H]3C[C@H]43)ccc(Cl)c12
### Response lower range

### Prompt Entry to check: COC(=O)Nc1nn(CC(=O)N[C@@H](Cc2cc(F)cc(F)c2)c2nc(C#CC(C)(C)O)ccc2-c2ccc(Cl)c3c(NS(C)(=O)=O)nn(C)c23)c2c1[C@H]1C[C@H]1C2(F)F
### Response upper range

###

- PROTOCOL DESCRIPTION: Test B: Cytotoxicity Assay
- Type: cell-based
- CONDITION CONTEXT: human, uninfected MT-4 cells, same protocol as Test A
Strictly below 10 µM in CC50 at 5 days: rule met. Otherwise: rule not met.

As a guide, the following entries are already answered.
### Prompt Find out if reported CC50 at 5 days for CCNc1nn(C)c2c(-c3ccc(C#CC(C)(C)O)nc3[C@H](Cc3cc(F)cc(F)c3)NC(=O)Cn3nc(C(F)F)c4c3C(F)(F)[C@@H]3C[C@H]43)ccc(Cl)c12 [Compound 91E] is less than 10 µM
### Response rule met

### Prompt Entry to check: Cn1nc(N)c2cccc(-c3cnc(C#CC(C)(C)O)nc3[C@H](Cc3cc(F)cc(F)c3)NC(=O)Cn3nc(C(F)F)c4c3C(F)(F)CCC4(F)F)c21 [Compound 37F]
### Response rule met

### Prompt Entry to check: Cn1nc(NS(C)(=O)=O)c2cccc(-c3cnc(C#CC(C)(C)O)nc3[C@H](Cc3cc(F)cc(F)c3)NC(=O)Cn3nc(C(F)(F)F)c4c3C(F)(F)[C@@H]3C[C@H]43)c21
### Response rule met

### Prompt Entry to check: CN(C)CC#Cc1ccc(-c2cccc3c(NS(C)(=O)=O)nn(C)c23)c([C@H](Cc2cc(F)cc(F)c2)NC(=O)Cn2nc(C(F)(F)F)c3c2C(F)(F)[C@@H]2C[C@H]32)n1 [Compound 61B]
### Response rule not met

### Prompt Entry to check: Cn1cnc(S(=O)(=O)Nc2nn(C)c3c(-c4ccc(C#CC(C)(C)O)nc4[C@H](Cc4cc(F)cc(F)c4)NC(=O)Cn4nc(C(F)(F)F)c5c4C(F)(F)[C@@H]4C[C@H]54)cccc23)c1
### Response rule not met

Further cases:
### Prompt Find out if reported CC50 at 5 days for CC(C)(O)C#Cc1ccc(-c2cccn3c(C(F)F)nnc23)c([C@H](Cc2cc(F)cc(F)c2)NC(=O)Cn2nc(C(F)F)c3c2C(F)(F)[C@@H]2C[C@H]32)n1 is less than 10 µM
### Response rule not met

###

- PROTOCOL DESCRIPTION: Test B: Cytotoxicity Assay
- Format: cell-based
- CONDITION CONTEXT: human, uninfected MT-4 cells, same protocol as Test A
- Experimental: MT-4 cells were next mixed with HIV-IIIb at an m.o.i of 0.003 for 1 hour, after which time 35 μL of virus/cell mixture (2000 cells) was immediately added to each well containing 40 μL of diluted compound. […] Cell lysis was carried out by incubating at room temperature for 10 min and then chemiluminescence was read. […] Compound cytotoxicity and the corresponding CC50 values was determined using the same protocol as described in the antiviral assay (Test A) except that uninfected cells were used.
Category | rule: reported CC50 at 5 days within range, see band A = under 9 µM, band B = from 9 µM up to 20 µM, band C = 20 µM and over

As a guide, the following entries are already answered.
### Prompt Into which bin does this molecule go? Cn1nc(N)c2c(Cl)ccc(-c3ccc(C#CC(C)(C)O)nc3[C@H](Cc3cc(F)cc(F)c3)NC(=O)Cn3nc(C(F)F)c4c3C(F)(F)[C@@H]3C[C@H]43)c21 [Compound 57]
### Response band A

### Prompt Entry to check: CC(C)(O)C#Cc1ccc(-c2ccc(Cl)n3c(NS(C)(=O)=O)nnc23)c([C@H](Cc2cc(F)cc(F)c2)NC(=O)Cn2nc(C(F)F)c3c2C(F)(F)[C@@H]2C[C@H]32)n1 [Compound 110E]
### Response band C

### Prompt Entry to check: Cn1nc(NC(=O)CN2CCCC2)c2c(Cl)ccc(-c3ccc(C#CC(C)(C)O)nc3[C@H](Cc3cc(F)cc(F)c3)NC(=O)Cn3nc(C(F)F)c4c3C(F)(F)[C@@H]3C[C@H]43)c21 [Compound 100]
### Response band A

Further cases:
### Prompt Into which bin does this molecule go? CC(C)(O)C#Cc1ccc(-c2cc(C(=O)NC3COC3)c3nccn3c2)c([C@H](Cc2cc(F)cc(F)c2)NC(=O)Cn2nc(C(F)(F)F)c3c2C(F)(F)[C@@H]2C[C@H]32)n1 [Compound 35D]
### Response band B

### Prompt Entry to check: CNC(=O)c1nn(CC(=O)N[C@@H](Cc2cc(F)cc(F)c2)c2nc(C#CC(C)(C)O)ccc2-c2ccc(Cl)c3c(NS(C)(=O)=O)nn(C)c23)c2c1[C@H]1C[C@H]1C2(F)F [Compound 165]
### Response band A

### Prompt Entry to check: CC(C)(O)C#Cc1ccc(-c2cccc3c(NS(C)(=O)=O)noc23)c([C@H](Cc2cc(F)cc(F)c2)NC(=O)Cn2nc(C(F)(F)F)c3c2C(F)(F)[C@@H]2C[C@H]32)n1 [Compound 39C]
### Response band C

### Prompt Entry to check: Cn1nc(NS(C)(=O)=O)c2c(Cl)ccc(-c3ccc(C#CC(C)(C)O)nc3[C@H](Cc3cccc(F)c3)NC(=O)Cn3nc(C(F)F)c4c3C(F)(F)[C@@H]3C[C@H]43)c21 [Compound 188]
### Response band C

### Prompt Entry to check: Cn1nc(NS(C)(=O)=O)c2c(C(F)F)ccc(-c3ccc(C#CC(C)(C)O)nc3[C@H](Cc3cc(F)cc(F)c3)NC(=O)Cn3nc(C(F)F)c4c3C(F)(F)[C@@H]3C[C@H]43)c21 [Compound 155I]
### Response band C

### Prompt Entry to check: Cn1nc(NC(=O)C(C)(C)O)c2c(Cl)ccc(-c3ccc(C#CC(C)(C)O)nc3[C@H](Cc3cc(F)cc(F)c3)NC(=O)Cn3nc(C(F)F)c4c3C(F)(F)[C@@H]3C[C@H]43)c21 [Compound 89]
### Response band A

### Prompt Entry to check: Cn1nc(NS(C)(=O)=O)c2c(Cl)ccc(-c3ccc(C#CC(C)(C)O)nc3[C@H](Cc3cc(F)cc(F)c3)NC(=O)Cc3ccc4ccccc4c3)c21 [Compound 200]
### Response band B
